Target Of Assay: His6-YY1 (UniProt P25490 1-414)
Sequence (P25490 whole entry): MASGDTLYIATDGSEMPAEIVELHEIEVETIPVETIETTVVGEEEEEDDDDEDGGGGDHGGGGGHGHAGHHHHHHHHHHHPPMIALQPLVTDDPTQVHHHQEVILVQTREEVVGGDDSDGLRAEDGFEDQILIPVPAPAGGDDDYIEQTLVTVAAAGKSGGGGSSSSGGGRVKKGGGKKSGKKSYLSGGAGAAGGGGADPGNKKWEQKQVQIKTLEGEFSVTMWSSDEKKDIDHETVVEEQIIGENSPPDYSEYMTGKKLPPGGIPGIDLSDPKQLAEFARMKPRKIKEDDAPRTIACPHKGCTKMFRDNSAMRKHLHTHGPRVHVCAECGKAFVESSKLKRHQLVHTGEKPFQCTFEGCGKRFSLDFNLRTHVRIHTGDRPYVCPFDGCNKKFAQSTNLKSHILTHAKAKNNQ
Protocol Text: competition
Outcome Measure: binding result

S3 (dsDNA) DNA 1: CTTGTCTGCCATTGTATCTT DNA 2: AAGATACAATGGCAGACAAG	no binding
S1 (dsDNA) DNA 1: ATGATAAGCCATGATCACAC DNA 2: GTGTGATCATGGCTTATCAT	no binding
S5 (dsDNA) DNA 1: GCTTTCTTCCATCTTGAAAA DNA 2: TTTTCAAGATGGAAGAAAGC	binds
S4 (dsDNA) DNA 1: TGGTGCCGACATTTTTTTTC DNA 2: GAAAAAAAATGTCGGCACCA	binds
S2M (dsDNA) DNA 1: GGGCACAGAGGGTTTAATCA DNA 2: TGATTAAACCCTCTGTGCCC	no binding
S4M (dsDNA) DNA 1: TGGTGCCGAGGGTTTTTTTC DNA 2: GAAAAAAACCCTCGGCACCA	no binding

Next item in the queue.
Name the recorded binding result for S5M (dsDNA) DNA 1: GCTTTCTTCGGGCTTGAAAA DNA 2: TTTTCAAGCCCGAAGAAAGC .
no binding
